assay: Permeability across artificial membrane at pH 7.4 by PAMPA assay
Catalogue of compounds with associated Papp
Field format: number, assumed ×10⁻⁶ cm/s, no unit text.

Name the recorded Papp of the item C=CC(=O)c1ccc(CCCCCC)cc1 in your answer.
38

Name the recorded Papp of the item C/C=C/C(=O)c1ccc(CCCCCCC)cc1 in your answer.
7

Name the recorded Papp of the item CCCCCCc1ccc(C(=O)/C=C\C(=O)O)cc1 in your answer.
66
